Target: human GPR84 receptor (Homo sapiens, UniProt Q9NQS5)
Construct: frozen aliquots prepared by acCELLerate
Sequence (Q9NQS5 whole entry): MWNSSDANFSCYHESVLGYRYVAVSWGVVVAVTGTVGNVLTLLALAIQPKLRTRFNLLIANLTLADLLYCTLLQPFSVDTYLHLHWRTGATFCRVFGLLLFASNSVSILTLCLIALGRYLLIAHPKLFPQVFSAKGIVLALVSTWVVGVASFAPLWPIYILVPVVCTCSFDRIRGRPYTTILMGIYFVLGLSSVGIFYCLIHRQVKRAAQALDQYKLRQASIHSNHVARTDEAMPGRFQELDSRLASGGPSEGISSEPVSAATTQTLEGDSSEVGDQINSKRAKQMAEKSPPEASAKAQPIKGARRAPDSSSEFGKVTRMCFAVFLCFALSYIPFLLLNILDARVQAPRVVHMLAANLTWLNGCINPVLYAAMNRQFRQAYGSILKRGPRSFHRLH
Experiment: cAMP HTRF assay for identification of cellular GPR84 antagonists
Settings: CHO-K1 cells stably expressing human GPR84; Forskolin + agonist 6-OAU (EC80); average or median values
RECORDED ENDPOINT: pIC50
Bear in mind: pIC50 is minus log10 of a mol/L concentration; give just that figure.

Worked cases, answers included:
MOLECULE: O=C(NC[C@H]1CC(F)(F)CO1)c1oc2c(c1C(F)(F)F)-c1nn(C[C@H]3COCCO3)cc1CC2 (single isomer, unassigned) [Example 222-2]
READOUT NUMBER: 7.27
//
MOLECULE: Cc1c(C(=O)NC[C@@H]2COCCO2)oc2c1-c1nn(C[C@H]3COCCO3)cc1C1(CC1)C2
READOUT NUMBER: 7.41
//
MOLECULE: Cc1ccc(Cn2cc3c(n2)-c2c(oc(C(=O)NC[C@@H]4CCCO4)c2C(F)(F)F)CC3)cn1
READOUT NUMBER: 8.22
//
MOLECULE: Cc1cccc(Cn2cc3c(n2)-c2c(oc(C(=O)NCC4CCCO4)c2C)CC3)n1 (single isomer, unassigned) [Example 66-2]
READOUT NUMBER: 6.18
//
MOLECULE: C[C@@H]1Cc2oc(C(=O)NC[C@@H]3COCCO3)c(C(F)(F)F)c2-c2nn(CC3CCN(C(=O)C4(O)CC4)CC3)cc21 (single isomer, unassigned)
READOUT NUMBER: 8.10

# next molecule below
Record Cc1c(C(=O)NCc2cc(C3CC3)on2)oc2c1-c1nn(CC3COc4ncccc4O3)cc1CC2 (single isomer, unassigned) [Example 50-2] , field pIC50: 7.77

* * *

Biological target: human GPR84 receptor (Homo sapiens, UniProt Q9NQS5)
Construct: frozen aliquots prepared by acCELLerate
Test: cAMP HTRF assay for identification of cellular GPR84 antagonists
Conditions: CHO-K1 cells stably expressing human GPR84; Forskolin + agonist 6-OAU (EC80); average or median values
RECORDED ENDPOINT: log10 IC50 (log10 of the value in nM)
All values: log10 IC50 [nM].

Field: example entries. Status: answers known.
COMPOUND: Cc1c(C(=O)NCC2CCC(=O)O2)oc2c1-c1nn(Cc3ccccn3)cc1CC2 (single isomer, unassigned) [Example 39-1]
MEASUREMENT TARGET: human GPR84 receptor (Homo sapiens, UniProt Q9NQS5)
log10 IC50: 2.83

COMPOUND: Cc1c(C(=O)NC[C@@H]2COCCO2)oc2c1-c1nn(Cc3ncccn3)cc1CC2
MEASUREMENT TARGET: human GPR84 receptor (Homo sapiens, UniProt Q9NQS5)
log10 IC50: 2.26

COMPOUND: O=C(NC[C@@H]1CCCO1)c1oc2c(c1C(F)(F)F)-c1nn(Cc3ccccn3)cc1CC2
MEASUREMENT TARGET: human GPR84 receptor (Homo sapiens, UniProt Q9NQS5)
log10 IC50: 1.43

COMPOUND: Cc1cccc(Cn2cc3c(n2)-c2c(oc(C(=O)NCc4cc(C5CC5)on4)c2C)CC3)n1
MEASUREMENT TARGET: human GPR84 receptor (Homo sapiens, UniProt Q9NQS5)
log10 IC50: 2.23

COMPOUND: Cc1c(C(=O)NC[C@@H]2CCCO2)oc2c1-c1nn(CC3(F)COC3)cc1CC2
MEASUREMENT TARGET: human GPR84 receptor (Homo sapiens, UniProt Q9NQS5)
log10 IC50: 1.49

COMPOUND: O=C(NC[C@@H]1COCCO1)c1oc2c(c1C1CC1)-c1nn(C[C@H]3COCCO3)cc1CC2
MEASUREMENT TARGET: human GPR84 receptor (Homo sapiens, UniProt Q9NQS5)
log10 IC50: 1.51

get_value(item= Cc1c(C(=O)NCC2CCO2)oc2c1-c1nn(Cc3ccccn3)cc1CC2 (single isomer, unassigned) [Example 35-2] , readout=log10 IC50) returns 2.89
